- target-under-test: EGFR E746-A750 deletion (Homo sapiens, UniProt P00533, DEL746-750)
- Sequence (P00533 with tags, fused parts or gaps DEL746-750): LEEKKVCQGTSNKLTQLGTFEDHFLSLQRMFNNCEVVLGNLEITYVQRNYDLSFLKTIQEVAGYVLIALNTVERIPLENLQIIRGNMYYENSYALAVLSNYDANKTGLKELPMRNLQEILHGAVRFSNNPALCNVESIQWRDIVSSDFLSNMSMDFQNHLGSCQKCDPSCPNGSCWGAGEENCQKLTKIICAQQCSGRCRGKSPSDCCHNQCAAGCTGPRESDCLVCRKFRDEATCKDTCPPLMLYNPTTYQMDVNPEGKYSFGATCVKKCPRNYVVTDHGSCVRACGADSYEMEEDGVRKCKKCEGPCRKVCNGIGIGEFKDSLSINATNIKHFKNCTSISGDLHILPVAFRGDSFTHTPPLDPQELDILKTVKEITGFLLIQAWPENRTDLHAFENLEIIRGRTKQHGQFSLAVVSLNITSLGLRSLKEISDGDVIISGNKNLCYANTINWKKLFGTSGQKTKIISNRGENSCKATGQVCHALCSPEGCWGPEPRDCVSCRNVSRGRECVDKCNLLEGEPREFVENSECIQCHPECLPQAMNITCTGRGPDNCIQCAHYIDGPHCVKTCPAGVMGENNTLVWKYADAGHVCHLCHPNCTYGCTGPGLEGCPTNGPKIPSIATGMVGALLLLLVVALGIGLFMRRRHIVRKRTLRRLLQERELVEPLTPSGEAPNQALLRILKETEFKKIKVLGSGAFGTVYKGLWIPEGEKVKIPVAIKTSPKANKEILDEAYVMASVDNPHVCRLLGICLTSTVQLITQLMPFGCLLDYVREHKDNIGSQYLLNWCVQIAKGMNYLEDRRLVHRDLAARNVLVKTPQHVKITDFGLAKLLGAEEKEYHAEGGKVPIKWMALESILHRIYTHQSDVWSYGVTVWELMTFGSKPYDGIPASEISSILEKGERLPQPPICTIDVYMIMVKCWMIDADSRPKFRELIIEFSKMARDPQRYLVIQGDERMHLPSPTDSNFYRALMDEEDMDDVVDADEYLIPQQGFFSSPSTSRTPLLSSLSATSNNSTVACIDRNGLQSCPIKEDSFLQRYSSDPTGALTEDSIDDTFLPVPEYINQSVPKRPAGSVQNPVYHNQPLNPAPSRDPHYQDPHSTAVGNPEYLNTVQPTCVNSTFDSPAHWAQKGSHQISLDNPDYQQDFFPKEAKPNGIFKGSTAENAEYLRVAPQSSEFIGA
- procedure-text: pEGFR Y1068 ELISA assay, NIH3T3/EGFR_E746-A750 deletion cells;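 also: sandwich ELISA on cell lysates detecting phospho-EGFR at Tyr1068, compounds run as 11-point threefold dilution series in duplicate, IC50 from inhibition of this phosphorylation signal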
- measurement-parameters: 3T3 Del cells, 2 hrs compound treatment; read-out: ELISA7E 3T3 Del IC50
pIC50: −log10 of the molar value.
pIC50 values by entry
measure: pIC50

# compound, target-under-test, relation, numeric-value
data = [
    ("C=CC(=O)Nc1cc(F)cc(Oc2nc(Nc3cnn([C@@H]4CCN(C)C4)c3)nc3[nH]ccc23)c1", "EGFR E746-A750 deletion (Homo sapiens, UniProt P00533, DEL746-750)", "=", 7.92),
    ("C=CC(=O)Nc1cccc(Oc2nc(Nc3ccn(C)n3)nc3[nH]cc(Cl)c23)c1", "EGFR E746-A750 deletion (Homo sapiens, UniProt P00533, DEL746-750)", "=", 7.48),
    ("C=CC(=O)Nc1cccc(Oc2nc(Nc3cnn(C)c3)nc3[nH]cc(-c4cnn(C)c4)c23)c1", "EGFR E746-A750 deletion (Homo sapiens, UniProt P00533, DEL746-750)", "=", 7.92),
    ("C=CC(=O)N1C[C@H](COc2nc(Nc3cn(C)nc3OC)nc3[nH]cc(Cl)c23)[C@@H](OC)C1", "EGFR E746-A750 deletion (Homo sapiens, UniProt P00533, DEL746-750)", "=", 6.57),
    ("C=CC(=O)Nc1cccc(Oc2nc(Nc3cc(CC)nn3C)nc3[nH]ccc23)c1", "EGFR E746-A750 deletion (Homo sapiens, UniProt P00533, DEL746-750)", "=", 6.50),
    ("C=CC(=O)Nc1cccc(Oc2nc(Nc3cnn(C)c3)nc3[nH]cc(-c4cccnc4)c23)c1", "EGFR E746-A750 deletion (Homo sapiens, UniProt P00533, DEL746-750)", "=", 8.10),
    ("C=CC(=O)Nc1cccc(Oc2nc(Nc3cc(OCCN(C)C)nn3C)nc3[nH]ccc23)c1F", "EGFR E746-A750 deletion (Homo sapiens, UniProt P00533, DEL746-750)", "=", 6.96),
    ("C=CC(=O)N[C@H]1C[C@H](Oc2nc(Nc3cnn(C)c3)nc3[nH]cnc23)C1 (single isomer, unassigned)", "EGFR E746-A750 deletion (Homo sapiens, UniProt P00533, DEL746-750)", "<", 5.00),
    ("C=CC(=O)N(C)C1CC(Oc2nc(Nc3cnn(C)c3)nc3[nH]cc(C#N)c23)C1 (stereo not shown)", "EGFR E746-A750 deletion (Homo sapiens, UniProt P00533, DEL746-750)", "=", 6.24),
    ("C=CC(=O)Nc1cccc(Oc2nc(Nc3cc[nH]n3)nc3[nH]ccc23)c1", "EGFR E746-A750 deletion (Homo sapiens, UniProt P00533, DEL746-750)", "=", 7.25),
    ("C=CC(=O)Nc1cccc(Oc2nc(Nc3cnn(C4CCN(C)C4)c3)nc3[nH]cnc23)c1 (stereo not shown)", "EGFR E746-A750 deletion (Homo sapiens, UniProt P00533, DEL746-750)", "=", 5.95),
    ("C=CC(=O)Nc1cccc(Oc2nc(Nc3cc(C)nn3C)nc3[nH]ccc23)c1", "EGFR E746-A750 deletion (Homo sapiens, UniProt P00533, DEL746-750)", "=", 6.87),
    ("C=CC(=O)N1C[C@H](COc2nc(Nc3cnn([C@H]4CCOC4)c3)nc3[nH]cc(Cl)c23)[C@@H](OC)C1", "EGFR E746-A750 deletion (Homo sapiens, UniProt P00533, DEL746-750)", "=", 6.15),
    ("C=CC(=O)Nc1cccc(Oc2nc(Nc3cnn([C@H]4CCN(C)C4)c3)nc3[nH]ccc23)c1F", "EGFR E746-A750 deletion (Homo sapiens, UniProt P00533, DEL746-750)", "=", 8.05),
    ("C=CC(=O)Nc1cccc(Oc2nc(Nc3cnn(C4CCOC4)c3)nc3[nH]ccc23)c1 (stereo not shown)", "EGFR E746-A750 deletion (Homo sapiens, UniProt P00533, DEL746-750)", "=", 7.00),
    ("C=CC(=O)Nc1cccc(Oc2nc(Nc3cnn(CCN(C)C)c3)nc3[nH]cnc23)c1", "EGFR E746-A750 deletion (Homo sapiens, UniProt P00533, DEL746-750)", "=", 6.18),
    ("C=CC(=O)N1C[C@H](COc2nc(Nc3cnn(C)c3)nc3[nH]cc(Cl)c23)[C@@H]([C@H](C)O)C1 (single isomer, unassigned)", "EGFR E746-A750 deletion (Homo sapiens, UniProt P00533, DEL746-750)", "=", 5.99),
    ("C=CC(=O)Nc1cccc(Oc2nc(Nc3cnn(C)c3)nc3[nH]cc(C#N)c23)c1", "EGFR E746-A750 deletion (Homo sapiens, UniProt P00533, DEL746-750)", "=", 7.60),
    ("C=CC(=O)N1C[C@@H]2[C@H](C1)[C@H]2Oc1nc(Nc2cnn(C)c2)nc2[nH]cc(Cl)c12", "EGFR E746-A750 deletion (Homo sapiens, UniProt P00533, DEL746-750)", "=", 6.51),
    ("C=CC(=O)Nc1cccc(Oc2nc(Nc3cnn(CCN(C)C)c3)nc3[nH]ccc23)c1", "EGFR E746-A750 deletion (Homo sapiens, UniProt P00533, DEL746-750)", "=", 7.54),
    ("C=CC(=O)Nc1cccc(Oc2nc(Nc3ccn(CC)n3)nc3[nH]ccc23)c1", "EGFR E746-A750 deletion (Homo sapiens, UniProt P00533, DEL746-750)", "=", 7.57),
    ("C=CC(=O)Nc1cccc(Oc2nc(Nc3cnn(C)c3)nc3[nH]cnc23)c1", "EGFR E746-A750 deletion (Homo sapiens, UniProt P00533, DEL746-750)", "=", 6.72),
    ("C=CC(=O)Nc1cccc(Oc2nc(Nc3ccn(C)n3)nc3[nH]ccc23)c1F", "EGFR E746-A750 deletion (Homo sapiens, UniProt P00533, DEL746-750)", "=", 7.44),
    ("C=CC(=O)Nc1cccc(Oc2nc(Nc3cnn(C)n3)nc3[nH]ccc23)c1", "EGFR E746-A750 deletion (Homo sapiens, UniProt P00533, DEL746-750)", "=", 7.36),
    ("C=CC(=O)N[C@H]1C[C@@](C)(Oc2nc(Nc3cnn(C)c3)nc3[nH]cc(Cl)c23)C1", "EGFR E746-A750 deletion (Homo sapiens, UniProt P00533, DEL746-750)", "=", 6.93),
    ("C=CC(=O)Nc1cccc(Oc2nc(Nc3cnn(C4CCN(C)CC4)c3)nc3[nH]ccc23)c1", "EGFR E746-A750 deletion (Homo sapiens, UniProt P00533, DEL746-750)", "=", 7.57),
    ("C=CC(=O)N1CC[C@@H](Oc2nc(Nc3cnn(C)c3)nc3[nH]cc(Cl)c23)C1", "EGFR E746-A750 deletion (Homo sapiens, UniProt P00533, DEL746-750)", "=", 5.93),
    ("C=CC(=O)Nc1cc(F)cc(Oc2nc(Nc3ccn(C)n3)nc3[nH]ccc23)c1", "EGFR E746-A750 deletion (Homo sapiens, UniProt P00533, DEL746-750)", "=", 7.66),
    ("C=CC(=O)Nc1cccc(Oc2nc(Nc3ccn(CCN(C)C)n3)nc3[nH]ccc23)c1", "EGFR E746-A750 deletion (Homo sapiens, UniProt P00533, DEL746-750)", "=", 6.86),
    ("C=CC(=O)N1C[C@H](COc2nc(Nc3cnn(CC)n3)nc3[nH]cc(Cl)c23)[C@@H](OC)C1", "EGFR E746-A750 deletion (Homo sapiens, UniProt P00533, DEL746-750)", "=", 6.76),
    ("C=CC(=O)N(C)[C@H]1C[C@H](Oc2nc(Nc3cn(C)nc3C)nc3[nH]cc(Cl)c23)C1", "EGFR E746-A750 deletion (Homo sapiens, UniProt P00533, DEL746-750)", "=", 6.63),
]

###

- Test system: NIH3T3/EGFR_E746-A750_deletion
- procedure-text: Cell proliferation assay (CellTiter-Glo), NIH3T3/EGFR_E746-A750_deletion
- Type: cell-based
- measurement-parameters: Mus musculus, NIH3T3, 120 h, 3T3 cell line, three to five days of compound treatment, read-out: 3T3 del IC50
Catalogue of IC50 values

# compound, IC50
records = [
    ("C=CC(=O)N1C[C@H](COc2nc(Nc3cnn(C)c3)nc3[nH]cc(Cl)c23)[C@@H](OC)C1", "10 to 100 nM"),
    ("C=CC(=O)N1CC(Oc2nc(Nc3cnn(C)c3)nc3[nH]cc(Cl)c23)C1", "100 to 1000 nM"),
    ("C=CC(=O)Nc1cccc(Oc2nc(Nc3cnn(C)c3)nc3[nH]ccc23)c1", "< 10 nM"),
    ("C=CC(=O)Nc1cccc(Oc2nc(Nc3cnn(CCN(C)C)c3)nc3[nH]ccc23)c1", "< 10 nM"),
    ("C=CC(=O)N1CC[C@@H](Oc2nc(Nc3cnn(C)c3)nc3[nH]cc(Cl)c23)C1", "100 to 1000 nM"),
    ("C=CC(=O)N[C@H]1C[C@@H](Oc2nc(Nc3cnn(C)c3)nc3[nH]cc(C#N)c23)C1 (single isomer, unassigned)", "100 to 1000 nM"),
    ("C=CC(=O)N1C[C@H](COc2nc(Nc3cnn([C@@H]4CCOC4)c3)nc3[nH]cc(Cl)c23)[C@@H](OC)C1", "100 to 1000 nM"),
    ("C=CC(=O)Nc1cccc(Oc2nc(Nc3cnn(C)n3)nc3[nH]ccc23)c1", "10 to 100 nM"),
]
